Here the recorded pIC50 is given for each entry.
experimentalTarget: JAK1 kinase (Homo sapiens (Human), UniProt P23458)
Sequence (P23458 850-1154): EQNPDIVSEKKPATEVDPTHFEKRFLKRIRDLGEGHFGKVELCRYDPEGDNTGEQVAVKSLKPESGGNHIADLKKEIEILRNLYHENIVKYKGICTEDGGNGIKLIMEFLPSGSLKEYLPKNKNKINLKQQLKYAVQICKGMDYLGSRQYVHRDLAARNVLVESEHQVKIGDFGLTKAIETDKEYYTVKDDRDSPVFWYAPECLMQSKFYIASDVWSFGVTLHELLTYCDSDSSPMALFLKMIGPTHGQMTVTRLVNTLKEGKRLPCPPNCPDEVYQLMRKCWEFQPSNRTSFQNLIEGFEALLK
condition: read-out: JAK1 IC50
pIC50: −log10 of the molar value.
readoutType: pIC50

| compoundStructureString | readoutType | experimentalValue |
| --- | --- | --- |
| COc1ccccc1CNc1nc(Nc2cnn(CCO)c2)ncc1C(N)=O | pIC50 | 7.81 |
| C=C(C)CCNc1nc(Nc2cnn(C(C)(C)C)c2)ncc1C(N)=O | pIC50 | 8.10 |
| CC(C)(C)n1cc(Nc2ncc(C(N)=O)c(NCC3CC=CC3)n2)cn1 | pIC50 | 8.12 |
| C=C(C)CCCNc1nc(Nc2cnn(C(C)(C)C)c2)ncc1C(N)=O | pIC50 | 7.97 |
| CC(C)=CCNc1nc(Nc2cnn(C3CCOCC3)c2)ncc1C(N)=O | pIC50 | 8.19 |
| NC(=O)c1cnc(Nc2cnn(C3CCOCC3)c2)nc1NCc1c(F)cccc1F | pIC50 | 7.79 |
| C=CCNc1nc(Nc2cnn(C(C)(C)C)c2)ncc1C(N)=O | pIC50 | 7.94 |
| COCCn1cc(Nc2ncc(C(N)=O)c(NCc3c(F)cccc3OC)n2)cn1 | pIC50 | 8.04 |
| CCn1cc(Nc2ncc(C(N)=O)c(NCc3c(F)cccc3F)n2)cn1 | pIC50 | 7.85 |
